# TGT: α-synuclein (UniProt P37840 1-140)
# PROTOCOL_DETAILS: cell-based or functional assay; further: test concentration or dose not given here
Non-standard residues stand in square brackets, D forms with d.
METRIC: % increase in Lag phase (%)
Give the quantity in %, number only.

So, Ac-[dH][dH][dT][dL][dV][dV]-NH2 (SMILES CC(=O)N[C@H](Cc1c[nH]cn1)C(=O)N[C@H](Cc1c[nH]cn1)C(=O)N[C@@H](C(=O)N[C@H](CC(C)C)C(=O)N[C@@H](C(=O)N[C@@H](C(N)=O)C(C)C)C(C)C)[C@H](C)O) [ZP-0186] ? Its % increase in Lag phase was 16.1

So, Ac-[dH][dH][dV][dI][dV][dP]-NH2 (SMILES CC[C@@H](C)[C@@H](NC(=O)[C@H](NC(=O)[C@@H](Cc1c[nH]cn1)NC(=O)[C@@H](Cc1c[nH]cn1)NC(C)=O)C(C)C)C(=O)N[C@@H](C(=O)N1CCC[C@@H]1C(N)=O)C(C)C) [ZP-0168] ? Its % increase in Lag phase was 29.8

So, Ac-[dH][dH][dT][dE][dV][dY]-NH2 (SMILES CC(=O)N[C@H](Cc1c[nH]cn1)C(=O)N[C@H](Cc1c[nH]cn1)C(=O)N[C@@H](C(=O)N[C@H](CCC(=O)O)C(=O)N[C@@H](C(=O)N[C@H](Cc1ccc(O)cc1)C(N)=O)C(C)C)[C@H](C)O) [ZP-0193] ? Its % increase in Lag phase was 31.4

So, Ac-[dD][dR][dY][dS][dV][dL][dI]-NH2 (SMILES CC[C@@H](C)[C@@H](NC(=O)[C@@H](CC(C)C)NC(=O)[C@H](NC(=O)[C@@H](CO)NC(=O)[C@@H](Cc1ccc(O)cc1)NC(=O)[C@@H](CCCNC(=N)N)NC(=O)[C@@H](CC(=O)O)NC(C)=O)C(C)C)C(N)=O) [ZP-0214] ? Its % increase in Lag phase was -12.6

So, Ac-[dH][dH][dV][dI][dV][dW]-NH2 (SMILES CC[C@@H](C)[C@@H](NC(=O)[C@H](NC(=O)[C@@H](Cc1c[nH]cn1)NC(=O)[C@@H](Cc1c[nH]cn1)NC(C)=O)C(C)C)C(=O)N[C@@H](C(=O)N[C@H](Cc1c[nH]c2ccccc12)C(N)=O)C(C)C) [ZP-0172] ? Its % increase in Lag phase was 28.1

Each recorded value in this set is attributed to patent US8290713.
